Where do the numbers come from? From patent US20150307520A1.

MEASUREMENT_TARGET: p110γ (Homo sapiens, UniProt P48736)
Sequence (P48736 whole entry): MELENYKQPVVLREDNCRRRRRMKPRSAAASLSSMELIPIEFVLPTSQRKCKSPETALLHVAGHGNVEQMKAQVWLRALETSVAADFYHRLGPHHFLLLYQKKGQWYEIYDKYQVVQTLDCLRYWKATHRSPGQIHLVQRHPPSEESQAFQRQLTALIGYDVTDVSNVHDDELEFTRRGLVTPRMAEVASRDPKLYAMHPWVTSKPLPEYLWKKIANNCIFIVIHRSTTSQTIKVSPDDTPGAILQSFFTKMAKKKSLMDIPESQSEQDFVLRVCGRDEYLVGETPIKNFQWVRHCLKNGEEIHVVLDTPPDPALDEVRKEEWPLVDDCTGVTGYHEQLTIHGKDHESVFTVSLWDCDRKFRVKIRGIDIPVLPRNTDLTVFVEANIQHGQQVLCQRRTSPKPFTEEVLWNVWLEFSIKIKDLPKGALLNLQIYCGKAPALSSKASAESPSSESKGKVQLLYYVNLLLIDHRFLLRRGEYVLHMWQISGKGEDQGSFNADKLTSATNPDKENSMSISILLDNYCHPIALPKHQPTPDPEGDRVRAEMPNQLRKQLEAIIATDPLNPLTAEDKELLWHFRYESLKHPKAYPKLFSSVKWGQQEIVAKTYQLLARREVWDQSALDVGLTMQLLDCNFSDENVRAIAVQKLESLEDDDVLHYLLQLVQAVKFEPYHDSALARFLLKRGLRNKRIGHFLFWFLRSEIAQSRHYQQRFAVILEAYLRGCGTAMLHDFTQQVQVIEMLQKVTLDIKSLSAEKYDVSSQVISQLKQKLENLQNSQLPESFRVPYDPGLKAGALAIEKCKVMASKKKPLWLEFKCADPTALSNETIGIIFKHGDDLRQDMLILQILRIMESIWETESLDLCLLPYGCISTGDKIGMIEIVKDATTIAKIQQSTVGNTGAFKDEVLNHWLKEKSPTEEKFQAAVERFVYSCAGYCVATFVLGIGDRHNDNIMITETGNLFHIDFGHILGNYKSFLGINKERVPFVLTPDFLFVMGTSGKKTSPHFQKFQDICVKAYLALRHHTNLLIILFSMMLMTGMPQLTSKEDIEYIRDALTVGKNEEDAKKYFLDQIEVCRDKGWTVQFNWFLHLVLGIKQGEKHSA
ASSAY_SUMMARY: Transcreener KINASE Assay, kinase inhibition of p110γ
Type: biochemical
RUN_PARAMETERS: 1 uM test compound
Description: Kinase Inhibition assays of p110α/p85α, p110β/p85α, p110δ/p85α and p110γ PI3K kinases including p110α/p85α, p110δ/p85α and p110γ are purchased from Invitrogen, and p110β/p85α is from Millipore. Primary screening data and IC50 values are measured using Transcreener™ KINASE Assay (Bellbrook, Catalog #3003-10K). […] The plate is sealed again and incubated for 60 min at room temperature, and then measure fluorescence polarization by Tecan Infinite F500 Reader. […]
Entries and their PI3Kγ IH % @ 1 uM values follow.
Entry rule: numbers only, all in %.

Prompt line: Please give the measured PI3Kγ IH % @ 1 uM for this molecule: N#Cc1c(N)ncnc1N1CC[C@H]1c1nn2cccc2c(=O)n1-c1ccccc1
Response line: 40.2

Prompt line: Please give the measured PI3Kγ IH % @ 1 uM for this molecule: N#Cc1c[nH]c2ncnc(N3CCOCC3c3nn4ccc(Cl)c4c(=O)n3-c3ccccc3)c12 (stereo not shown)
Response line: 79.3

Prompt line: Please give the measured PI3Kγ IH % @ 1 uM for this molecule: Cc1nc(N)nc(N2C[C@H](C)C2c2nn3ccc(F)c3c(=O)n2-c2ccccc2)c1C#N (stereo partly shown)
Response line: 98.7
